# credit: the Immune Epitope Database (IEDB)

- system-tested: HLA-B*57:01
- test-details: IEDB peptide-MHC binding, purified MHC/direct/fluorescence; filed as Kd, often an IC50 or EC50 that approximates it; bounds were set here for any values at or beyond the usual limits of such assays
- condition-parameters: source organism: Vibrio parahaemolyticus AQ3810
endpoint-label: Kd

# input Please give the measured Kd for this sequence: RLDKPLWLH
# output ≥ 20 µM

###

- system-tested: HLA-A*30:01
- test-details: IEDB peptide-MHC binding, purified MHC/competitive/fluorescence; filed as Kd, often an IC50 or EC50 that approximates it; bounds were set here for any values at or beyond the usual limits of such assays
- condition-parameters: source organism: Pleistophora sp. LS
pKd: −log10 of the molar value.
endpoint-label: pKd

# input Please give the measured pKd for this sequence: VELQIGWTV
# output ≤ 4.70

###

- system-tested: HLA-B*51:01
- test-details: IEDB peptide-MHC binding, purified MHC/competitive/fluorescence; filed as Kd, often an IC50 or EC50 that approximates it; bounds were set here for any values at or beyond the usual limits of such assays
- condition-parameters: source organism: Vibrio antiquarius
endpoint-label: Kd

# input Please give the measured Kd for this sequence: SLTIPSFYT
# output ≥ 20 µM

###

I'd appreciate it if you could supply pKd values for the items below.
- system-tested: HLA-B*57:01
- test-details: IEDB peptide-MHC binding, purified MHC/competitive/radioactivity; filed as Kd, often an IC50 or EC50 that approximates it; bounds were set here for any values at or beyond the usual limits of such assays
- condition-parameters: source organism: Dengue virus 4 Philippines/H241/1956
pKd (log units): -log10 of the concentration in mol/L.

# input Please give the measured pKd for this sequence: KTWGKAKIF
# output 7.44

# input Please give the measured pKd for this sequence: RAKGSRAIW
# output 6.76

###

- system-tested: HLA-A*02:01
- test-details: IEDB peptide-MHC binding, purified MHC/competitive/fluorescence; filed as Kd, often an IC50 or EC50 that approximates it; bounds were set here for any values at or beyond the usual limits of such assays
- condition-parameters: source organism: Orthomarburgvirus marburgense
endpoint-label: pKd
pKd (log units): -log10 of the concentration in mol/L.

# input Please give the measured pKd for this sequence: ALFHKVQSY
# output 5.88

###

- system-tested: HLA-B*45:06
- test-details: IEDB peptide-MHC binding, purified MHC/competitive/fluorescence; filed as Kd, often an IC50 or EC50 that approximates it; bounds were set here for any values at or beyond the usual limits of such assays
- condition-parameters: source organism: Salmonella enterica subsp. enterica serovar Typhi
endpoint-label: Kd (nM)
Please respond with the number in nM and leave the unit unwritten.

# input Please give the measured Kd for this sequence: KQLELFWVI
# output 833

###

- system-tested: HLA-A*23:01
- test-details: IEDB peptide-MHC binding, purified MHC/competitive/radioactivity; filed as Kd, often an IC50 or EC50 that approximates it; bounds were set here for any values at or beyond the usual limits of such assays
- condition-parameters: source organism: Dengue virus 1 Nauru/West Pac/1974
endpoint-label: Kd (nM)
Please respond with the number in nM and leave the unit unwritten.

# input Please give the measured Kd for this sequence: IFGTAYGVLF
# output 10.4

###

- system-tested: HLA-B*18:01
- test-details: IEDB peptide-MHC binding, purified MHC/direct/fluorescence; filed as Kd, often an IC50 or EC50 that approximates it; bounds were set here for any values at or beyond the usual limits of such assays
- condition-parameters: source organism: Camelpox virus CMS
endpoint-label: Kd
A complete answer gives the number and then names the unit.

# input Please give the measured Kd for this sequence: REVFYFGKF
# output 813 nM

###

- system-tested: HLA-B*18:01
- test-details: IEDB peptide-MHC binding, purified MHC/competitive/fluorescence; filed as Kd, often an IC50 or EC50 that approximates it; bounds were set here for any values at or beyond the usual limits of such assays
- condition-parameters: source organism: Entamoeba histolytica HM-1:IMSS
endpoint-label: Kd

# input Please give the measured Kd for this sequence: CLSPVVAGL
# output ≥ 20 µM

###

- system-tested: HLA-A*02:01
- test-details: IEDB peptide-MHC binding, purified MHC/direct/fluorescence; filed as Kd, often an IC50 or EC50 that approximates it; bounds were set here for any values at or beyond the usual limits of such assays
- condition-parameters: source organism: Pseudomonas aeruginosa
endpoint-label: Kd (µM)
Please respond with the number in µM and leave the unit unwritten.

# input Please give the measured Kd for this sequence: GVFKVWHPI
# output 5.72

###

- system-tested: HLA-A*03:01
- test-details: IEDB peptide-MHC binding, purified MHC/direct/fluorescence; filed as Kd, often an IC50 or EC50 that approximates it; bounds were set here for any values at or beyond the usual limits of such assays
- condition-parameters: source organism: Escherichia coli
endpoint-label: Kd

# input Please give the measured Kd for this sequence: TVANNPDDK
# output ≥ 20 µM

###

- system-tested: HLA-B*15:01
- test-details: IEDB peptide-MHC binding, purified MHC/competitive/fluorescence; filed as Kd, often an IC50 or EC50 that approximates it; bounds were set here for any values at or beyond the usual limits of such assays
- condition-parameters: source organism: Escherichia coli O139:H28 str. E24377A
endpoint-label: Kd (nM)
Please respond with the number in nM and leave the unit unwritten.

# input Please give the measured Kd for this sequence: YALATQVEF
# output 41.3

###

- system-tested: HLA-A*02:11
- test-details: IEDB peptide-MHC binding, purified MHC/competitive/fluorescence; filed as Kd, often an IC50 or EC50 that approximates it; bounds were set here for any values at or beyond the usual limits of such assays
- condition-parameters: source organism: Haemophilus influenzae
endpoint-label: Kd

# input Please give the measured Kd for this sequence: YINMAWNLV
# output ≤ 0.1 nM

###

- system-tested: HLA-B*44:02
- test-details: IEDB peptide-MHC binding, purified MHC/direct/fluorescence; filed as Kd, often an IC50 or EC50 that approximates it; bounds were set here for any values at or beyond the usual limits of such assays
- condition-parameters: source organism: Vibrio vulnificus
pKd: −log10 of the molar value.
endpoint-label: pKd

# input Please give the measured pKd for this sequence: VNGVKGIQF
# output ≤ 4.70

###

- system-tested: HLA-B*07:02
- test-details: IEDB peptide-MHC binding, purified MHC/competitive/radioactivity; filed as Kd, often an IC50 or EC50 that approximates it; bounds were set here for any values at or beyond the usual limits of such assays
- condition-parameters: source organism: Mammarenavirus lassaense
endpoint-label: Kd (nM)
Please respond with the number in nM and leave the unit unwritten.

# input Please give the measured Kd for this sequence: FPYVMGDVEL
# output 930

# input Please give the measured Kd for this sequence: FPAIFSAEVL
# output 1380

# input Please give the measured Kd for this sequence: TPVEIVVDM
# output 16700

###

- system-tested: HLA-A*69:01
- test-details: IEDB peptide-MHC binding, purified MHC/direct/fluorescence; filed as Kd, often an IC50 or EC50 that approximates it; bounds were set here for any values at or beyond the usual limits of such assays
- condition-parameters: source organism: Serratia marcescens
endpoint-label: Kd

# input Please give the measured Kd for this sequence: LIPDGDGEV
# output ≥ 20 µM

###

- system-tested: HLA-A*33:01
- test-details: IEDB peptide-MHC binding, purified MHC/competitive/radioactivity; filed as Kd, often an IC50 or EC50 that approximates it; bounds were set here for any values at or beyond the usual limits of such assays
- condition-parameters: source organism: Mammarenavirus guanaritoense
endpoint-label: pKd
pKd (log units): -log10 of the concentration in mol/L.

# input I'm curious: which pKd was measured for IMAYVNQAHH tested on HLA-A*33:01?
# output 5.41

###

- system-tested: HLA-B*15:09
- test-details: IEDB peptide-MHC binding, purified MHC/direct/fluorescence; filed as Kd, often an IC50 or EC50 that approximates it; bounds were set here for any values at or beyond the usual limits of such assays
- condition-parameters: source organism: Influenza A virus(A/swine/Henan/8/2004(H9N2))
pKd: −log10 of the molar value.
endpoint-label: pKd

# input I'm curious: which pKd was measured for ILKGKFQTA tested on HLA-B*15:09?
# output ≤ 4.70

###

- system-tested: HLA-B*40:01
- test-details: IEDB peptide-MHC binding, purified MHC/direct/fluorescence; filed as Kd, often an IC50 or EC50 that approximates it; bounds were set here for any values at or beyond the usual limits of such assays
- condition-parameters: source organism: Yersinia pestis
pKd: −log10 of the molar value.
endpoint-label: pKd

# input Please give the measured pKd for this sequence: VPRVHNQPQ
# output ≤ 4.70

###

- system-tested: HLA-B*39:01
- test-details: IEDB peptide-MHC binding, purified MHC/competitive/fluorescence; filed as Kd, often an IC50 or EC50 that approximates it; bounds were set here for any values at or beyond the usual limits of such assays
- condition-parameters: source organism: Burkholderia orbicola
pKd: −log10 of the molar value.
endpoint-label: pKd

# input Please give the measured pKd for this sequence: RIEQLYPFA
# output ≤ 4.70
